Tested on: SW872
Protocol Description: relative viability vs DMSO control (72 h) (fraction); higher = more viable cells
Condition Parameters: 0.01372 µM
Measured Property: relative viability
Give bare numbers.

Completed entries (count: 6):
> print(dat)
                  compound.structure.string  recorded.number
1  C[C@@H]1COC(Nc2ccc3ncnc(Nc4ccc(OCc5nccs5)c(Cl)c4)c3c2)=N1             1.07
2  COc1cc2nccc(Oc3ccc(NC(=O)NC4CC4)c(Cl)c3)c2cc1C(N)=O             1.05
3  C=CC(=O)Nc1cc(Nc2nccc(-c3cn(C)c4ccccc34)n2)c(OC)cc1N(C)CCN(C)C             1.04
4  C[C@H]1Oc2cc(cnc2N)-c2c(nn(C)c2C#N)CN(C)C(=O)c2ccc(F)cc21                1
5  COc1cc(OC)cc(N(CCNC(C)C)c2ccc3ncc(-c4cnn(C)c4)nc3c2)c1            0.989
6  Cc1ccc(C(=O)OCc2ccc([C@@H](CN)C(=O)Nc3ccc4cnccc4c3)cc2)c(C)c1             1.01

Give relative viability for each listed item.
1. C[C@@H](Oc1cc(-c2cnn(C3CCNCC3)c2)cnc1N)c1c(Cl)ccc(F)c1Cl
2. COc1cc(Nc2c(C#N)cnc3cc(OCCCN4CCN(C)CC4)c(OC)cc23)c(Cl)cc1Cl

Response:
1.08
1.12
